Data provenance: PubChem BioAssay (NCI)

Listing of entries alongside the reported growth.
- System: K-562 leukemia
- Assay Overview: NCI-60 one-dose screen, 48 h (100 = growth as untreated, 0 = no growth, -100 = all killed)
- Assay Context: 10 µM
This is part of a sample that, as a whole, favours compounds with a hit. Of some 83,000 tested, about 20% had one in any assay.
Provide the reading as a plain figure in %.

Compound	growth (%)
COc1cc(C2C=C(c3ccc(Cl)c(Cl)c3)N=C3SC(C)=CN32)cc(OC)c1OC (centres undefined)	32.1
CC(=O)Nc1nc(C)c(C(=O)N/N=C/c2cccn2C)s1	54.3
C[C@H](NC(=O)[C@@H]1CSSC[C@@H](NC(=O)Cc2nc3ccccc3cc2O)C(=O)NCC(=O)N1C)c1ccccc1	43.9

In: Return reported growth; argument: `COc1ccc(-c2nc(SCC(=O)c3ccc(Br)cc3)[nH]c(=O)c2C#N)cc1`
Out: 96.1

In: Name the recorded growth for `COc1cc([C@@H]2c3cc4c(cc3[C@H](SC(=N)N)[C@H]3COC(=O)[C@H]23)OCO4)cc(OC)c1OC` .
Out: 13.8

In: Returns the measured growth for the input compound. Input: `Cc1ccc([P+](Cc2ccccc2)(c2ccccc2)c2ccccc2)cc1`
Out: 2.63

In: Recorded growth of `O=c1cc(CSc2nnc(-c3ccccc3)n2-c2ccc(F)cc2)c2ccc3ccccc3c2o1` , please.
Out: 82.9

In: GET /values?readout=growth&item= `Cc1noc(C)c1-c1ccc2nc(NC(=O)[C@H]3CCN(C#N)C3)cn2c1`
Out: 40.5

In: Consider the compound shown here: CCOc1cc(Br)c(C(C)NC(=O)c2cccc(OC)c2)cc1OCC (centres undefined) What is its recorded growth?
Out: 8.6
